Tested Target: Peptide 2004 (…) (Mycobacterium tuberculosis)
# Lookup of reported rank by relative ELISA signal across the dilution series (1 = highest) keyed by entry
Measure Name: rank by relative ELISA signal across the dilution series (1 = highest)

Binder	Recorded Measurement
Antibody 6D10-1 (antibody, V domains shown) VH: QSVEESGGRLVTPGTPLTLTCTVSGFSLSDVTMSWVRQAPGKGLEWIGIIGRRGRIWYANWAKGRFTISKTSPTVDLKIISPTSDDTATYFCARGAVSSDWNMYGMDLWGPGTLVTVSS VL: QVLTQTPSSVSAPVGGTVTINCQSSQSVYNNENLAWYQQKLGQPPKLLIYGASTLASGVSSRFEGSGSGTQFALTISGVQCDDAATYYCQGEFDCSSADCFAFGGGTEVVVK	2
Antibody 21F10-1 (antibody, V domains shown) VH: QSVEESGGRLVTPGTPLTLTCTVSGIDLSSNAVGWVRQAPGEGLEWIGSIYSSGNSYYASWAKGRFAISRTSTTVDLKMTRLTAADTATYFCARLFNIWGPGTLVTVS VL: ADIVLTQTPASVSSVVGGTVAINCQASQSVYDNKNLSWFQQKPGQTPKQLIYGASTLASGVPSRFKGSGSGTQFTLTISGVQCDDAATYYCGGRDDDNIYDFGGGTEVVVK	11
Antibody 55H8-1 (antibody, V domains shown) VH: QSMEESGGRLVTPGTPLTLTCTVSGFSLSDHAMSWVRQAPGKGLEWIGIVGRRGRTYYASWAKGRFTISKTSTTVDLKITSPTIEDTATYFCARGYVSSDWNIYGMDLWGPGTLVTVSS VL: QVLTQTPSPVSAAVGGTVTINCQASQSVYNNKNLAWYQQKPGQPPKLLIYEASTLASGVSSRFKGSGSGTQFTLTISGVQCDDAATYYCQGEFDCSSADCFAFGGGTEVVVK	4
